This section presents compounds with their documented combination Emax values.
test system: ESO26 (Esophageal Adenocarcinoma); assay: combination Emax (second highest fraction inhibited in the dose matrix, 72 h); higher = more inhibition; extreme values may be limits of the assay
assay_metric: combination Emax

compound: CC1(C)CCC(CN2CCN(c3ccc(C(=O)NS(=O)(=O)c4ccc(NCC5CCOCC5)c([N+](=O)[O-])c4)c(Oc4cnc5[nH]ccc5c4)c3)CC2)=C(c2ccc(Cl)cc2)C1 [Venetoclax] + C[C@@H](Nc1cc(F)cc(F)c1)c1cc(C(=O)N(C)C)cc2c(=O)cc(N3CCOCC3)oc12 [AZD8186] (first compound max 1 µM, 7x7, partner max 3 µM)
assay_metric: combination Emax
test_result: 0.0996
--
compound: COc1nnc2ccc(N3CCC(c4ccc(OCCN5CCN(C)C(=O)[C@H]5C)cc4)CC3)nn12 [AZD5153] + CCN(CCO)CCCOc1ccc2c(Nc3cc(CC(=O)Nc4cccc(F)c4)[nH]n3)ncnc2c1 [AZD2811] (first compound max 1 µM, 7x7, partner max 1 µM)
assay_metric: combination Emax
test_result: 0.752
--
compound: NC1(C(=O)N[C@@H](CCO)c2ccc(Cl)cc2)CCN(c2ncnc3[nH]ccc23)CC1 [Capivasertib] + C[C@@H]1COCCN1C2=NC(=NC(=C2)C3(CC3)[S@](=N)(=O)C)C4=C5C=CNC5=NC=C4 [AZD6738] (first compound max 10 µM, 7x7, partner max 10 µM)
assay_metric: combination Emax
test_result: 0.599
--
compound: Cn1cnc2c(F)c(Nc3ccc(Br)cc3Cl)c(C(=O)NOCCO)cc21 [Selumetinib] + CCN(CCO)CCCOc1ccc2c(Nc3cc(CC(=O)Nc4cccc(F)c4)[nH]n3)ncnc2c1 [AZD2811] (first compound max 10 µM, 7x7, partner max 1 µM)
assay_metric: combination Emax
test_result: 0.212
--
compound: Cn1cnc2c(F)c(Nc3ccc(Br)cc3Cl)c(C(=O)NOCCO)cc21 [Selumetinib] + C[C@@H]1COCCN1C2=NC(=NC(=C2)C3(CC3)[S@](=N)(=O)C)C4=C5C=CNC5=NC=C4 [AZD6738] (first compound max 10 µM, 7x7, partner max 10 µM)
assay_metric: combination Emax
test_result: 0.486
--
compound: CC(=O)c1c(C)c2cnc(Nc3ccc(N4CCNCC4)cn3)nc2n(C2CCCC2)c1=O [Palbociclib] + Cc1c2c(nn1C)CSCc1cc(n(C)n1)CSc1cc(c3ccccc3c1)OCCCc1c(C(=O)O)n(C)c3c-2c(Cl)ccc13 [AZD5991] (first compound max 10 µM, 7x7, partner max 1 µM)
assay_metric: combination Emax
test_result: 0.63
--
compound: C=CCn1c(=O)c2cnc(Nc3ccc(N4CCN(C)CC4)cc3)nc2n1-c1cccc(C(C)(C)O)n1 [AZD1775] + C[C@@H]1COCCN1C2=NC(=NC(=C2)C3(CC3)[S@](=N)(=O)C)C4=C5C=CNC5=NC=C4 [AZD6738] (first compound max 1 µM, partner max 10 µM)
assay_metric: combination Emax
test_result: 0.399
--
compound: CN(CCO)CC[C@H](CSc1ccccc1)Nc1ccc(S(=O)(=O)NC(=O)c2ccc(N3CCC([C@@H](O)c4ccccc4-c4ccc(Cl)cc4)CC3)cc2)cc1S(=O)(=O)C(F)(F)F [AZD4320] + C1CN(CCC1(C(=O)N[C@@H](CCO)C2=CC=C(C=C2)Cl)N)C3=NC=NC4=C3C=CN4 [Capivasertib] (first compound max 1 µM, 7x7, partner max 3 µM)
assay_metric: combination Emax
test_result: 0.345
--
compound: CN(CCO)CC[C@H](CSc1ccccc1)Nc1ccc(S(=O)(=O)NC(=O)c2ccc(N3CCC([C@@H](O)c4ccccc4-c4ccc(Cl)cc4)CC3)cc2)cc1S(=O)(=O)C(F)(F)F [AZD4320] + C[C@@H]1COCCN1C2=NC(=NC(=C2)C3(CC3)[S@](=N)(=O)C)C4=C5C=CNC5=NC=C4 [AZD6738] (first compound max 1 µM, 7x7, partner max 10 µM)
assay_metric: combination Emax
test_result: 0.628
--
compound: COc1cccc(OCCCN)c1-c1cc(Nc2cnc(C#N)cn2)n[nH]1 [Prexasertib] + CCc1c2c(nc3ccc(O)cc13)-c1cc3c(c(=O)n1C2)COC(=O)[C@]3(O)CC [SN-38] (first compound max 1 µM, 7x7, partner max 0.3 µM)
assay_metric: combination Emax
test_result: 0.76
--
compound: COc1cccc(OCCCN)c1-c1cc(Nc2cnc(C#N)cn2)n[nH]1 [Prexasertib] + CN(C)CCCOc1ccc(-c2ccc3ncc4c(c3c2)n(C2CCOCC2)c(=O)n4C)cn1 [AZD0156] (first compound max 1 µM, 7x7, partner max 1 µM)
assay_metric: combination Emax
test_result: 0.571
--
compound: COc1nnc2ccc(N3CCC(c4ccc(OCCN5CCN(C)C(=O)[C@H]5C)cc4)CC3)nn12 [AZD5153] + CN(CC[C@H](CSC1=CC=CC=C1)NC2=C(C=C(C=C2)S(=O)(=O)NC(=O)C3=CC=C(C=C3)N4CCC(CC4)[C@H](C5=CC=CC=C5C6=CC=C(C=C6)Cl)O)S(=O)(=O)C(F)(F)F)CCO [AZD4320] (first compound max 1 µM, 7x7, partner max 1 µM)
assay_metric: combination Emax
test_result: 0.754
--
compound: Cc1nc(Nc2ncc(C(=O)Nc3c(C)cccc3Cl)s2)cc(N2CCN(CCO)CC2)n1 [Dasatinib] + CC(=O)Nc1cccc(-n2c(=O)n(C3CC3)c(=O)c3c(Nc4ccc(I)cc4F)n(C)c(=O)c(C)c32)c1 [Trametinib] (first compound max 2 µM, 7x7, partner max 1 µM)
assay_metric: combination Emax
test_result: 0.464

====

tested on: SW620 (Colorectal Carcinoma); test: combination Emax (second highest fraction inhibited in the dose matrix, 72 h); higher = more inhibition; extreme values may be limits of the assay
This section presents compounds with their documented combination Emax values.

compound: Cn1cnc2c(F)c(Nc3ccc(Br)cc3Cl)c(C(=O)NOCCO)cc21 [Selumetinib] + C=CCn1c(=O)c2cnc(Nc3ccc(N4CCN(C)CC4)cc3)nc2n1-c1cccc(C(C)(C)O)n1 [AZD1775] (first compound max 10 µM, partner max 1 µM)
target_or_system: SW620 (Colorectal Carcinoma)
combination Emax: 0.731
--
compound: CC(=O)c1c(C)c2cnc(Nc3ccc(N4CCNCC4)cn3)nc2n(C2CCCC2)c1=O [Palbociclib] + Cn1cnc2c(F)c(Nc3ccc(Br)cc3Cl)c(C(=O)NOCCO)cc21 [Selumetinib] (first compound max 10 µM, 7x7, partner max 10 µM)
target_or_system: SW620 (Colorectal Carcinoma)
combination Emax: 0.72
--
compound: N#Cc1cnc(Nc2cc(NC[C@H]3CNCCO3)c(C(F)(F)F)cn2)cn1 [SRA737] + O=c1[nH]cc(F)c(=O)[nH]1 [5-Fluorouracil] (first compound max 10 µM, 7x7, partner max 20 µM)
target_or_system: SW620 (Colorectal Carcinoma)
combination Emax: 0.422
--
compound: C[C@@H](Nc1cc(F)cc(F)c1)c1cc(C(=O)N(C)C)cc2c(=O)cc(N3CCOCC3)oc12 [AZD8186] + CC(=O)c1c(C)c2cnc(Nc3ccc(N4CCNCC4)cn3)nc2n(C2CCCC2)c1=O [Palbociclib] (first compound max 10 µM, 7x7, partner max 10 µM)
target_or_system: SW620 (Colorectal Carcinoma)
combination Emax: 0.481
--
compound: CC1(C)CCC(CN2CCN(c3ccc(C(=O)NS(=O)(=O)c4ccc(NCC5CCOCC5)c([N+](=O)[O-])c4)c(Oc4cnc5[nH]ccc5c4)c3)CC2)=C(c2ccc(Cl)cc2)C1 [Venetoclax] + C1CN(CCC1(C(=O)N[C@@H](CCO)C2=CC=C(C=C2)Cl)N)C3=NC=NC4=C3C=CN4 [Capivasertib] (first compound max 1 µM, 7x7, partner max 3 µM)
target_or_system: SW620 (Colorectal Carcinoma)
combination Emax: 0.151
--
compound: C=CCn1c(=O)c2cnc(Nc3ccc(N4CCN(C)CC4)cc3)nc2n1-c1cccc(C(C)(C)O)n1 [AZD1775] + CCc1c2c(nc3ccc(O)cc13)-c1cc3c(c(=O)n1C2)COC(=O)[C@]3(O)CC [SN-38] (first compound max 1 µM, partner max 0.3 µM)
target_or_system: SW620 (Colorectal Carcinoma)
combination Emax: 0.949
--
compound: C[C@@H](Oc1cc(-c2cnn(C3CCNCC3)c2)cnc1N)c1c(Cl)ccc(F)c1Cl [Crizotinib] + CC1=C(C(=CC=C1)Cl)NC(=O)C2=CN=C(S2)NC3=CC(=NC(=N3)C)N4CCN(CC4)CCO [Dasatinib] (first compound max 10 µM, 7x7, partner max 2 µM)
target_or_system: SW620 (Colorectal Carcinoma)
combination Emax: 0.867

====

This section presents compounds with their documented combination Emax values.
test system: CA46 (Burkitt's Lymphoma); assay: combination Emax (second highest fraction inhibited in the dose matrix, 72 h); higher = more inhibition; extreme values may be limits of the assay
assay_metric: combination Emax

compound: CN(C)CCCOc1ccc(-c2ccc3ncc4c(c3c2)n(C2CCOCC2)c(=O)n4C)cn1 [AZD0156] + O=C(c1cc(Cc2n[nH]c(=O)c3ccccc23)ccc1F)N1CCN(C(=O)C2CC2)CC1 [Olaparib] (first compound max 3 µM, partner max 3 µM)
target_or_system: CA46 (Burkitt's Lymphoma)
test_result: 0.567

compound: CN(C)CCCOc1ccc(-c2ccc3ncc4c(c3c2)n(C2CCOCC2)c(=O)n4C)cn1 [AZD0156] + C=CCn1c(=O)c2cnc(Nc3ccc(N4CCN(C)CC4)cc3)nc2n1-c1cccc(C(C)(C)O)n1 [AZD1775] (first compound max 1 µM, partner max 1 µM)
target_or_system: CA46 (Burkitt's Lymphoma)
test_result: 0.636

compound: Cc1cc2ncnn2cc1Nc1ncc2c(n1)n(C1CCOCC1)c(=O)n2C [AZD7648] + CN(C)CCCOc1ccc(-c2ccc3ncc4c(c3c2)n(C2CCOCC2)c(=O)n4C)cn1 [AZD0156] (first compound max 10 µM, 7x7, partner max 1 µM)
target_or_system: CA46 (Burkitt's Lymphoma)
test_result: 0.288
